// endpoint Ki / system D3 rat clone (Rattus norvegicus)
property-label: Ki (nM)

compound	target	property-label	value-observed
CCCN1CCc2cc(OCCCF)cc3c2[C@H]1Cc1cccc(O)c1-3 [11a]	D3 rat clone (Rattus norvegicus)	Ki	100
CCCN1CCc2cc(OCCF)cc3c2[C@H]1Cc1cccc(O)c1-3 [11b]	D3 rat clone (Rattus norvegicus)	Ki	410
CCN1CCc2cc(OCCF)cc3c2[C@H]1Cc1cccc(O)c1-3 [11d]	D3 rat clone (Rattus norvegicus)	Ki	550
CCN1CCc2cc(OCCCF)cc3c2[C@H]1Cc1cccc(O)c1-3 [11c]	D3 rat clone (Rattus norvegicus)	Ki	240

* * *

# target: D2^high (Rattus norvegicus, UniProt P61169)
# Construct: membrane-containing homogenates of rat corpus striatum tissue; from tissue; host or cells: rat corpus striatum
# Sequence (P61169 whole entry): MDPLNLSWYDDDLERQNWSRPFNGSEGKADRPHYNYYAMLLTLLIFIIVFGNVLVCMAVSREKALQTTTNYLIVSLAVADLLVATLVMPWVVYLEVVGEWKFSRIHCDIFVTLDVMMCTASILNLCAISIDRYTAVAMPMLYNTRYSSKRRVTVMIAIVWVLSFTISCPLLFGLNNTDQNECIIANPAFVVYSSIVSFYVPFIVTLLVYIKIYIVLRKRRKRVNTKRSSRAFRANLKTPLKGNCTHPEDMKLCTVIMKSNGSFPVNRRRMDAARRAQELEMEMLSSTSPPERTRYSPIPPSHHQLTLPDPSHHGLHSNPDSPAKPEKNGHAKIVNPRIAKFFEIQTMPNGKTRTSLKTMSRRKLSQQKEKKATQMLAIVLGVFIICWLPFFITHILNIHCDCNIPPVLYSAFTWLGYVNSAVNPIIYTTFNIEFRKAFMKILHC
# test-method-notes: Competitive radioreceptor binding, D2 high-affinity state, rat striatum [3H]domperidone
# particulars: rat striatum, [3H]domperidone; read-out: Ki D2^high
pKi: −log10 of the molar value.
Returns 1 (yes) if the recorded pKi is greater than or equal to 8, and 0 (no) otherwise.

compound	class-assignment
CCCN1CCc2cc(F)cc3c2[C@H]1Cc1ccc(O)c(O)c1-3 [2c, 2-F-NPA, reference compound]	1 (yes)
CN1CCc2cc(OCCF)cc3c2[C@H]1Cc1cccc(O)c1-3 [11g]	1 (yes)
CN1CCc2cc(OCCCF)cc3c2[C@H]1Cc1ccc(O)c(O)c1-3	0 (no)
CCN1CCc2cc(OCCF)cc3c2[C@H]1Cc1ccc(O)c(O)c1-3	1 (yes)
CCN1CCc2cc(OCCCF)cc3c2[C@H]1Cc1cccc(O)c1-3 [11c]	1 (yes)
CCCN1CCc2cc(OCCF)cc3c2[C@H]1Cc1cccc(O)c1-3 [11b]	1 (yes)
CCCN1CCc2cc(OCCCF)cc3c2[C@H]1Cc1ccc(O)c(O)c1-3 [8a, R(−)-2-(3-fluoropropanoxy)-NPA]	0 (no)
CCCN1CCc2cc(OC)cc3c2[C@H]1Cc1ccc(O)c(O)c1-3 [2b, 2-MeO-NPA, reference compound]	1 (yes)
CCCN1CCc2cc(OCCF)cc3c2[C@H]1Cc1ccc(O)c(O)c1-3 [8b, R(−)-2-Fluoroethyoxy-NPA]	1 (yes)
